System: MDA-MB-468
Assay: Antiproliferative activity against human MDA-MB-468 cells assessed as growth inhibition after 48 hrs by sulforhodamine B assay
Format: functional
Settings: MDA-MB-468, 48 h

# ENTRY_SMILES, OUTPUT_UNIT, GI50
rows = [
    ("N=C(N)c1ccc(-c2ccc(-c3ccccc3)o2)o1", "nM", 1640),
    ("N=C(N)c1ccc(-c2ccc(-c3ccc(F)cc3)o2)o1", "nM", 1360),
    ("N=C(N)c1ccc(-c2ccc(-c3cncc4ccccc34)s2)s1", "nM", 1270),
    ("COc1cc(-c2ccc(-c3ccc(C(=N)N)s3)s2)cc(OC)c1OC", "nM", 1820),
    ("N=C(N)c1ccc(-c2ccc(-c3cc(Cl)cc(Cl)c3)o2)o1", "nM", 2230),
    ("N=C(N)c1ccc(-c2ccc(-c3ccc4ccccc4c3)s2)s1", "nM", 2380),
    ("N=C(N)c1ccc(-c2ccc(-c3ccc(Cl)cc3)o2)o1", "nM", 2190),
]

###

Some molecules, each annotated with its measured Selectivity Index.
Assay: Selectivity index, ratio of IC50 for human WI38 cells to GI50 for human NCI60 cells
VALUE_TYPE: Selectivity Index

# ENTRY_SMILES, RESULT_COMPARATOR, QUANTITATIVE_READOUT
records = [
    ("COc1cccc(-c2ccc(-c3ccc(C(=N)N)s3)s2)c1", "=", 148.4),
    ("COc1ccc(-c2ccc(-c3ccc(C(=N)N)s3)s2)cc1", "=", 43),
    ("N=C(N)c1ccc(-c2ccc(-c3ccc(Cl)cc3)o2)o1", "=", 5.5),
    ("N=C(N)c1ccc(-c2ccc(-c3ccc4ccccc4c3)s2)s1", "=", 34),
    ("COc1cc(OC)cc(-c2ccc(-c3ccc(C(=N)N)o3)o2)c1", "=", 27),
    ("N=C(N)c1ccc(-c2ccc(-c3ccc(F)cc3)s2)s1", "=", 7.5),
    ("COc1ccc(-c2ccc(-c3ccc(C(=N)N)o3)o2)cc1", "=", 41.8),
    ("COc1cc(-c2ccc(-c3ccc(C(=N)N)s3)s2)cc(OC)c1OC", "=", 34.4),
    ("N=C(N)c1ccc(-c2ccc(-c3ccc(F)cc3)o2)o1", "=", 7.2),
    ("N=C(N)c1ccc(-c2ccc(-c3ccccc3)s2)s1", "=", 38.3),
    ("N=C(N)c1ccc(-c2ccc(-c3ccc(Cl)cc3)s2)s1", "=", 40),
    ("N=C(N)c1ccc(-c2ccc(-c3cc(Cl)cc(Cl)c3)o2)o1", "=", 9.2),
    ("N=C(N)c1ccc(-c2ccc(-c3cncc4ccccc34)s2)s1", ">", 74.6),
    ("N=C(N)c1ccc(-c2ccc(-c3ccccc3)o2)o1", "=", 28.6),
    ("COc1ccc2cc(-c3ccc(-c4ccc(C(=N)N)s4)s3)ccc2c1", "=", 26),
    ("N=C(N)c1ccc(-c2ccc(-c3cc(Cl)cc(Cl)c3)s2)s1", "=", 50.9),
]

###

Parameter: GI50. Scope: all listed entries.
System: ACHN
Test: Antiproliferative activity against human ACHN cells assessed as growth inhibition after 48 hrs by sulforhodamine B assay
Assay type: functional

# ENTRY_SMILES, GI50, µM
measured = [
    ("N=C(N)c1ccc(-c2ccc(-c3ccccc3)o2)o1", 2.56),
    ("N=C(N)c1ccc(-c2ccc(-c3ccc(Cl)cc3)o2)o1", 1.89),
    ("N=C(N)c1ccc(-c2ccc(-c3ccc4ccccc4c3)s2)s1", 2.53),
    ("COc1cc(-c2ccc(-c3ccc(C(=N)N)s3)s2)cc(OC)c1OC", 1.78),
    ("N=C(N)c1ccc(-c2ccc(-c3ccc(Cl)cc3)s2)s1", 1.75),
    ("COc1ccc(-c2ccc(-c3ccc(C(=N)N)o3)o2)cc1", 1.8),
    ("N=C(N)c1ccc(-c2ccc(-c3cc(Cl)cc(Cl)c3)s2)s1", 1.75),
    ("COc1cc(OC)cc(-c2ccc(-c3ccc(C(=N)N)o3)o2)c1", 2.05),
    ("N=C(N)c1ccc(-c2ccc(-c3ccc(F)cc3)s2)s1", 1.71),
    ("COc1ccc2cc(-c3ccc(-c4ccc(C(=N)N)s4)s3)ccc2c1", 3.06),
    ("N=C(N)c1ccc(-c2ccc(-c3ccc(F)cc3)o2)o1", 1.6),
    ("N=C(N)c1ccc(-c2ccc(-c3cc(Cl)cc(Cl)c3)o2)o1", 1.71),
    ("N=C(N)c1ccc(-c2ccc(-c3cncc4ccccc34)s2)s1", 1.48),
]
